# Assay method text: Cytotoxicity against African green monkey Vero E6 cells assessed as reduction in cell growth
# Assay type: toxicity, cell-based
# Details: chlorocebus sabaeus
Known CC50 of a selection of compounds

Query smiles	CC50
Nc1nccc2c1ncn2[C@@H]1C[C@H](CO)[C@@H](O)[C@H]1O	> 100 µM

Then there is this compound:
Q. So what's the measured CC50 for this one? Nc1nccc2c1ncn2[C@@H]1C=C(CO)[C@@H](O)[C@H]1O
A. > 100 µM

###

# Test system: Ebolavirus
# Assay method text: Antiviral activity against Ebola virus infected in Vero E6 cells assessed as virus-induced cytopathic effect incubated for 3 days by CPE assay
# Assay type: functional, organism-based
# Details: Orthoebolavirus, Vero C1008, 72 h
Recorded endpoint: EC50 (µM)
Record the value in µM, omitting the unit from your answer.

Compound	Test system	EC50 (µM)
Nc1nccc2c1ncn2[C@@H]1C=C(CO)[C@@H](O)[C@H]1O	Ebolavirus	30

Q. Under Ebolavirus: EC50 value of Nc1nccc2c1ncn2[C@@H]1C[C@H](CO)[C@@H](O)[C@H]1O [3-DEAZAARISTEROMYCIN A] ?
A. 2

###

# Assay method text: Cytotoxicity against African green monkey Vero E6 cells assessed as reduction in cell viability by neutral red uptake assay
# Format: toxicity, cell-based, Vero C1008
# Details: chlorocebus sabaeus
Recorded endpoint: CC50

Query smiles	Recorded endpoint	Value observed
C#Cc1c(C(N)=O)ncn1[C@@H]1O[C@H](CO)[C@@H](O)[C@H]1O	CC50	> 40 µM

Q. So what's the measured CC50 for this one? COc1c(C)c2c(c(O)c1C/C=C(\C)CCC(=O)O)C(=O)OC2
A. > 30 µM

###

# Test system: Human alphaherpesvirus 3
# Assay method text: Antiviral activity against Varicella zoster virus infected in human HEL cells assessed as inhibition of plaque formation measured for 3 days
# Assay type: functional, organism-based
# Details: Human alphaherpesvirus 3, HEL, 72 h
Recorded endpoint: EC50 (µM)
Record the value in µM, omitting the unit from your answer.

Some solved cases for reference:
Query smiles	Measurement unit	Value observed
C#CCn1c(=O)n(C(=O)c2ccccc2)c(=O)c2ccccc21	µM	5.4
C#CCn1c(=O)n(C(=O)c2ccccc2F)c(=O)c2ccccc21	µM	2.8

Q. Under Human alphaherpesvirus 3: EC50 value of O=c1c2ccccc2n(Cc2cn(CCCOCc3ccccc3)nn2)c(=O)n1Cc1ccc(F)cc1 ?
A. 12.3

###

# Assay method text: Cytotoxicity against African green monkey Vero cells
# Format: toxicity, cell-based
# Details: chlorocebus sabaeus
Known CC50 of a selection of molecules
Record the value in µM, omitting the unit from your answer.

Query smiles	CC50, µM
Cc1nc(N)c2c(C(N)=O)cc([C@@H]3O[C@H](CO)[C@@H](O)[C@H]3O)n2n1	45

Then there is this molecule:
Q. So what's the measured CC50 for this one? NC(=O)c1cc([C@@H]2O[C@H](CO)[C@@H](O)[C@H]2O)n2nc(CF)nc(N)c12
A. 45

###

Known pEC50 of a selection of compounds
# Tested on: SARS-CoV
# Assay method text: Antiviral activity against SARS-CoV Urbani infected in Vero E6 cells at 0.01 to 0.025 MOI assessed as inhibition of virus induced cytopathic effect
# Type: functional, organism-based
# Details: Severe acute respiratory syndrome-related coronavirus, Vero C1008
pEC50: −log10 of the molar value.

Compound	pEC50
COc1c(C)c2c(c(O)c1C/C=C(\C)CCC(=O)O)C(=O)OC2 [MYCOPHENOLIC ACID]	< 4.52

Then there is this compound:
Q. So what's the measured pEC50 for this one? C#Cc1c(C(N)=O)ncn1[C@@H]1O[C@H](CO)[C@@H](O)[C@H]1O
A. < 4.40
